Tested on: Haemophilus influenzae
protocol-summary: Antibacterial activity against Haemophilus influenzae ATCC 49247 by broth microdilution technique
Format: functional
measurement-kind: MIC

IN: Entry under review: `CCOC(=O)c1cn(C2CC2)c2ccc(CCCN3CCN(CCC(=O)O[C@H]4[C@H](C)O[C@@H](O[C@H]5[C@H](C)[C@@H](O[C@@H]6O[C@H](C)C[C@H](N(C)C)[C@H]6O)[C@](C)(O)C[C@@H](C)CN(C)[C@H](C)[C@@H](OC)[C@](C)(O)[C@@H](CC)OC(=O)[C@@H]5C)C[C@@]4(C)OC)CC3)cc2c1=O` . Reported MIC?
OUT: 16 µg/mL

IN: Which MIC value belongs to `CC[C@H]1OC(=O)[C@H](C)[C@@H](O[C@H]2C[C@@](C)(OC)[C@@H](O)[C@H](C)O2)[C@H](C)[C@@H](O[C@@H]2O[C@H](C)C[C@H](N(C)C)[C@H]2O)[C@](C)(O)C[C@@H](C)CN(C)[C@H](C)[C@@H](O)[C@]1(C)O` ?
OUT: 1 µg/mL

IN: Tell me the measured MIC of `CCOC(=O)c1cn(C2CC2)c2ccc(C#CCN3CCN(CCC(=O)O[C@H]4[C@H](C)O[C@@H](O[C@H]5[C@H](C)[C@@H](O[C@@H]6O[C@H](C)C[C@H](N(C)C)[C@H]6O)[C@](C)(OC)C[C@@H](C)C(=O)[C@H](C)[C@@H](O)[C@](C)(O)[C@@H](CC)OC(=O)[C@@H]5C)C[C@@]4(C)OC)CC3)cc2c1=O` , please.
OUT: > 64 µg/mL

IN: Bench note: what MIC did `CCOC(=O)c1cn(CC)c2ccc(CCCN3CCN(CCC(=O)O[C@H]4[C@H](C)O[C@@H](O[C@H]5[C@H](C)[C@@H](O[C@@H]6O[C@H](C)C[C@H](N(C)C)[C@H]6O)[C@](C)(OC)C[C@@H](C)C(=O)[C@H](C)[C@@H](O)[C@](C)(O)[C@@H](CC)OC(=O)[C@@H]5C)C[C@@]4(C)OC)CC3)cc2c1=O` show?
OUT: > 64 µg/mL

IN: Could you share which MIC value was measured for `CC[C@H]1OC(=O)[C@H](C)[C@@H](O[C@H]2C[C@@](C)(OC)[C@@H](O)[C@H](C)O2)[C@H](C)[C@@H](O[C@@H]2O[C@H](C)C[C@H](N(C)C)[C@H]2O)[C@](C)(OC)C[C@@H](C)C(=O)[C@H](C)[C@@H](O)[C@]1(C)O` ?
OUT: 8 µg/mL

IN: Reported MIC for `CC[C@H]1OC(=O)[C@H](C)[C@@H](O[C@H]2C[C@@](C)(OC)[C@@H](OCCCN3CCN(C/C=C/c4ccc5c(c4)c(=O)c(C(=O)O)cn5CC)CC3)[C@H](C)O2)[C@H](C)[C@@H](O[C@@H]2O[C@H](C)C[C@H](N(C)C)[C@H]2O)[C@](C)(O)C[C@@H](C)CN(C)[C@H](C)[C@@H](O)[C@]1(C)O` : what is it?
OUT: 16 µg/mL

IN: Which MIC is listed for `CCOC(=O)c1cn(CC)c2ccc(C#CCN3CCN(CCC(=O)O[C@H]4[C@H](C)O[C@@H](O[C@H]5[C@H](C)[C@@H](O[C@@H]6O[C@H](C)C[C@H](N(C)C)[C@H]6O)[C@](C)(O)C[C@@H](C)CN(C)[C@H](C)[C@@H](O)[C@](C)(O)[C@@H](CC)OC(=O)[C@@H]5C)C[C@@]4(C)OC)CC3)cc2c1=O` ?
OUT: 4 µg/mL

IN: Given the entry `CC[C@H]1OC(=O)[C@H](C)[C@@H](O[C@H]2C[C@@](C)(OC)[C@@H](OC(=O)CCN3CCN(CC#Cc4ccc5c(c4)c(=O)c(C(=O)O)cn5CC)CC3)[C@H](C)O2)[C@H](C)[C@@H](O[C@@H]2O[C@H](C)C[C@H](N(C)C)[C@H]2O)[C@](C)(O)C[C@@H](C)CN(C)[C@H](C)[C@@H](OC)[C@]1(C)O` , report its measured MIC.
OUT: 1 µg/mL

IN: Param item = `CCOC(=O)c1cn(CC)c2ccc(C#CCN3CCN(CCC(=O)O[C@H]4[C@H](C)O[C@@H](O[C@H]5[C@H](C)[C@@H](O[C@@H]6O[C@H](C)C[C@H](N(C)C)[C@H]6O)[C@](C)(OC)C[C@@H](C)C(=O)[C@H](C)[C@@H](O)[C@](C)(O)[C@@H](CC)OC(=O)[C@@H]5C)C[C@@]4(C)OC)CC3)cc2c1=O` ; retrieve measured MIC.
OUT: 4 µg/mL

IN: Given the compound `CC[C@H]1OC(=O)[C@H](C)[C@@H](O[C@H]2C[C@@](C)(OC)[C@@H](OC(=O)CCN3CCN(CCCc4ccc5c(c4)c(=O)c(C(=O)O)cn5CC)CC3)[C@H](C)O2)[C@H](C)[C@@H](O[C@@H]2O[C@H](C)C[C@H](N(C)C)[C@H]2O)[C@](C)(O)C[C@@H](C)CN(C)[C@H](C)[C@@H](OC)[C@]1(C)O` , what is its reported MIC?
OUT: 1 µg/mL

IN: May I ask what MIC has been recorded for `CCOC(=O)c1cn(CC)c2ccc(CCCN3CCN(CCC(=O)O[C@H]4[C@H](C)O[C@@H](O[C@H]5[C@H](C)[C@@H](O[C@@H]6O[C@H](C)C[C@H](N(C)C)[C@H]6O)[C@](C)(O)C[C@@H](C)CN(C)[C@H](C)[C@@H](O)[C@](C)(O)[C@@H](CC)OC(=O)[C@@H]5C)C[C@@]4(C)OC)CC3)cc2c1=O` ?
OUT: 2 µg/mL

IN: Look up MIC for this compound: `CCOC(=O)c1cn(CC)c2ccc(CCCN3CCN(CCC(=O)O[C@H]4[C@H](C)O[C@@H](O[C@H]5[C@H](C)[C@@H](O[C@@H]6O[C@H](C)C[C@H](N(C)C)[C@H]6O)[C@](C)(O)C[C@@H](C)CN(C)[C@H](C)[C@@H](OC)[C@](C)(O)[C@@H](CC)OC(=O)[C@@H]5C)C[C@@]4(C)OC)CC3)cc2c1=O`
OUT: 32 µg/mL

IN: Please look up its MIC: `CCOC(=O)c1cn(CC)c2ccc(/C=C/CN3CCN(C(=O)OC(C)(C)C)CC3)cc2c1=O`
OUT: > 64 µg/mL
